System: rabbit arteria saphena rings
measurement_notes: Vasorelaxant effect in vitro (arteria saphena rings, phenylephrin contraction)
Parameters: species or system Rabbits
test_context: concentration reducing phenylephrin-induced contraction by 50%
readout_label: IC50 (nM)
Only the number, expressed in nM, is required.

Q: Reported IC50 for CC(C)(C)c1ccc(COc2ccccc2CCN(CCCCC(=O)O)C2CCCc3cc(C(=O)O)ccc32)cc1 (single isomer, unassigned; enantiomer 1) [Example 2] : what is it?
Ans: 3.8

Q: Reported IC50 for CC(C)(C)c1ccc(COc2ccccc2CCN(CCCCC(=O)O)C2CCCc3cc(C(=O)O)ccc32)cc1 (single isomer, unassigned; enantiomer 2) [Example 3] : what is it?
Ans: 58
